Source listed as paper PMC5959779.

Target: UniProtKB P42574
Test: caspase-3 cleavage of protein substrates PAK2 and PARP, metal panel
Assay type: biochemical
propertyMeasured: effect on cleavage of protein substrate PAK2

1) O=S(=O)([O-])[O-].[Zn+2] ... completely inhibited
2) [Cl-].[Cl-].[Zn+2] ... completely inhibited
3) [Cu] ... did not observe
4) [Co] ... did not observe

* * *

Target: caspase-6 (Homo sapiens)
Sequence (P55212 24-179 limits assumed): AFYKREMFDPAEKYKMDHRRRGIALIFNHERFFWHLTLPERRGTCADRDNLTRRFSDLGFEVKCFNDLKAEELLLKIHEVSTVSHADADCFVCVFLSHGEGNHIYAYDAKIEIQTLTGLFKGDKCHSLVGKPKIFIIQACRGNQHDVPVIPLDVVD
Sequence (P55212 194-293 limits assumed): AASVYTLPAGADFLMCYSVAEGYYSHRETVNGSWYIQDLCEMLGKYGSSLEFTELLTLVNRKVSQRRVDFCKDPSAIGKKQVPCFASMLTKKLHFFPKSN
Experiment: caspase-6 cleavage of preferred fluorogenic tetrapeptide substrate
Type: biochemical
Details: read-out: IC50 Values Unbuffered; total zinc, no zinc buffer; 10 nM caspase
propertyMeasured: IC50 (µM)
API: value field is a number in µM; no unit string.

Which measured IC50 value corresponds to `[Zn+2]` ?
4.53

* * *

Target: caspase-8 (Homo sapiens)
Sequence (Q14790 217-374 limits assumed): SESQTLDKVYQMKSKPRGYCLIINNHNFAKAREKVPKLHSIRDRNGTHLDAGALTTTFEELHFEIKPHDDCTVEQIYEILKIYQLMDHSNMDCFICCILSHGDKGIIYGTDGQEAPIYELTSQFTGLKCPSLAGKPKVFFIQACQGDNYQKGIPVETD
Sequence (Q14790 385-479 limits assumed): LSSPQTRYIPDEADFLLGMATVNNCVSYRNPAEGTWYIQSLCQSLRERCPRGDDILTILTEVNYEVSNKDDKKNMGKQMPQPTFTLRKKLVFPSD
propertyMeasured: IC50 (nM)
The response must be a number in nM with no trailing unit.

Under caspase-8 (Homo sapiens): IC50 value of `[Zn+2]` ?
367

* * *

Target: caspase-3 (Homo sapiens)
Sequence (P42574 29-175 limits assumed): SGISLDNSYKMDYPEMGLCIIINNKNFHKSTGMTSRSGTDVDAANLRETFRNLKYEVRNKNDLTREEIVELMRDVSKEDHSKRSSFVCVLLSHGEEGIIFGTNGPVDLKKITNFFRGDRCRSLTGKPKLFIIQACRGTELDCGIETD
Sequence (P42574 176-277 limits assumed): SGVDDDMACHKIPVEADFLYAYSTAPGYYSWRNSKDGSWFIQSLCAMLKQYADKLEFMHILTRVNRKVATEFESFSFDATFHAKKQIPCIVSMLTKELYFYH
propertyMeasured: pIC50
The meaning of pIC50 here: minus log10 of the concentration in molar units.

// pIC50 lookup, key: [Zn+2] [Zinc, zinc]
6.98

* * *

Target: caspase-7 (Homo sapiens, UniProt P55210)
Sequence (P55210 24-198 limits assumed): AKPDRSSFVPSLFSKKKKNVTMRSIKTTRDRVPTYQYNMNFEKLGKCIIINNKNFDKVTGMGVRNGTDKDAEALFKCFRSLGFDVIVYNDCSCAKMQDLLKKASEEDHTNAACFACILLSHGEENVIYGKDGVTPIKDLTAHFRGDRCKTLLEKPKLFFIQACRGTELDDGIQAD
Sequence (P55210 207-303 limits assumed): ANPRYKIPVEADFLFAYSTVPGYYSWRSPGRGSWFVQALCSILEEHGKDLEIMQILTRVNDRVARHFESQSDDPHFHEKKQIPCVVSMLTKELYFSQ
propertyMeasured: Ki

I am curious: what Ki value has been reported for [Zn+2] [Zinc, zinc] ?
76.1 nM

* * *

Molecular target: caspase-3 (Homo sapiens)
Sequence (P42574 29-175 limits assumed): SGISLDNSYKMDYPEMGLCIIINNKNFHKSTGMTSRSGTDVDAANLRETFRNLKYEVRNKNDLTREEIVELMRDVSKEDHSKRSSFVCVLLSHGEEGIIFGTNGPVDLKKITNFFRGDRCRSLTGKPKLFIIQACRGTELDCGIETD
Sequence (P42574 176-277 limits assumed): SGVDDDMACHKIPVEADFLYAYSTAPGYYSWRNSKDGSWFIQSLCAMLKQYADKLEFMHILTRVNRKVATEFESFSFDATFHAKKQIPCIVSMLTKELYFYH
propertyMeasured: Ki (nM)
Value expressed in nM; do not type the unit.

# get_value(readout='Ki', item= `[Zn+2]` )
6.9
